Measured % Depletion, listed per entry.
Condition Label: 1 μM; s9 & sulfatase; after 60 min (Eq. 1)
Expressed in %, but write only the number.

Answered examples (3):
{"Compound": "CC(C)c1ccccc1OP(=O)(Oc1ccccc1)Oc1ccccc1 [2IPPDPP, 2-isopropylphenyl diphenyl phosphate]", "Measured Number": 36}
{"Compound": "O=P(Oc1ccccc1)(Oc1ccccc1)Oc1ccccc1 [TPHP, triphenyl phosphate, reference compound]", "Measured Number": 77}
{"Compound": "CC(C)(C)c1ccc(OP(=O)(Oc2ccccc2)Oc2ccccc2)cc1 [4tBPDPP, 4-tert-butylphenyl diphenyl phosphate]", "Measured Number": 39}

Next up:
compound CC(C)c1ccc(OP(=O)(Oc2ccccc2)Oc2ccccc2)cc1 [4IPPDPP, 4-isopropylphenyl diphenyl phosphate] , % Depletion observed: 71
